Assay: Phase 1 study (NCT05463952): plasma pharmacokinetics after a single dose and multiple once-daily doses
Type: in vivo, human
Details: human, plasma, oral, 200 mg, plasma; vepdegestrant 200 mg QD; multiple doses (cycle 1 day 15); N = 6; median (range)
reported-metric: Tmax (h)
Value expressed in h; do not type the unit.

### Prompt Report Tmax for O=C1CC[C@H](N2Cc3cc(N4CCN(CC5CCN(c6ccc([C@@H]7c8ccc(O)cc8CC[C@@H]7c7ccccc7)cc6)CC5)CC4)ccc3C2=O)C(=O)N1 [Vepdegestrant] please.
### Response 4.69

---

Experiment: Phase 1 study (NCT05463952): plasma pharmacokinetics after a single dose and multiple once-daily doses
Type: in vivo, human
Details: human, plasma, oral, 200 mg, plasma; vepdegestrant 200 mg QD; single dose (cycle 1 day 1); N = 6; geometric mean (geometric % CV); read-out: AUC24
reported-metric: AUC (ng·h/mL)
Value expressed in ng·h/mL; do not type the unit.

### Prompt Report AUC for O=C1CC[C@H](N2Cc3cc(N4CCN(CC5CCN(c6ccc([C@@H]7c8ccc(O)cc8CC[C@@H]7c7ccccc7)cc6)CC5)CC4)ccc3C2=O)C(=O)N1 [Vepdegestrant] please.
### Response 10400
